System: corn (Zea mays)
Assay: Test A postemergence, corn
Format: in vivo
Details: Zea mays, post-emergence, 240 h; 125 g ai/ha, postemergence; 0 to 100 scale, 0 is no effect, 100 is complete control; approximately 10 days
Kindly state Corn plant response rating (crop injury, 0 = no effect, 100 = complete kill) at 125 g/ha for each of the entries shown.
Answers are plain numbers, in %.

In [3]: df
Out[3]:
                                   molecule  unit_of_measurement  reported_value
0  FC(F)(F)COc1c(I)cccc1Oc1ncc(Cl)cn1 [Compound 65]                    %              20
1  N#Cc1cccc(Oc2ncc(Cl)cn2)c1OCCCC(F)(F)F [Compound 5]                    %              80
2  N#Cc1cccc(Oc2ncc(Cl)cn2)c1OCCC(F)(F)F [Compound 23]                    %              90
3  FC(F)C(F)(F)COc1c(Br)cccc1Oc1ncc(Cl)cn1 [Compound 18]                    %              20
4  CCCCOc1c(Br)cccc1Oc1ncc(Cl)cn1 [Compound 13]                    %              30

List the reported Corn plant response rating (crop injury, 0 = no effect, 100 = complete kill) at 125 g/ha of each molecule below.
1. Cc1cccc(Oc2ncc(Cl)cn2)c1OCC(F)(F)F [Compound 63]
2. N#Cc1cccc(Oc2ncc(Cl)cn2)c1OCC(F)(F)C(F)(F)F [Compound 10]
3. N#Cc1cccc(Oc2ncc(Cl)cn2)c1OC/C=C/C(F)(F)F [Compound 8]
4. Fc1cccc(Oc2ncc(Cl)cn2)c1OCC(F)(F)F [Compound 28]
5. N#Cc1cccc(Oc2ncc(F)cn2)c1OCCCC(F)(F)F [Compound 4]

**Result**
1. 0
2. 70
3. 20
4. 0
5. 90

###

System: blackgrass (Alopecurus myosuroides)
Test: Test A postemergence, blackgrass
Format: in vivo
Details: Alopecurus myosuroides, post-emergence, 240 h; 31 g ai/ha, postemergence; 0 to 100 scale, 0 is no effect, 100 is complete control; approximately 10 days; read-out: Plant response rating, Blackgrass
Observable: pest or weed control at 31 g/ha (%)
One number for each entry, in %.

In [3]: df
Out[3]:
                                 smiles_str                       observable  reported_value
0       N#Cc1cccc(Oc2ncc(F)cn2)c1OCC(F)(F)F  pest or weed control at 31 g/ha               0
1  N#Cc1cccc(Oc2ncc(Cl)cn2)c1OC/C=C/C(F)(F)F  pest or weed control at 31 g/ha              20
2        FC(F)(F)COc1c(I)cccc1Oc1ncc(Cl)cn1  pest or weed control at 31 g/ha               0

Consider the record given below.
**Query** Given the compound N#Cc1cccc(Oc2ncc(Cl)cn2)c1OCCCC(F)(F)F , what is its reported pest or weed control at 31 g/ha?
**Result** 30

###

Test system: sedge, umbrella (small-flower umbrella sedge, Cyperus difformis)
Experiment: Test B flooded paddy test, umbrella sedge
Type: in vivo
Conditions: 250 g ai/ha, Flood; visual rating after 13 to 15 days; scale 0 to 100, 0 is no effect, 100 is complete control
Observable: Plant response rating, Sedge, Umbrella
Numbers only.

>>> print(df.to_string())
                                 smiles_str                              observable  reported_value
0  N#Cc1cccc(Oc2ncc(Cl)cn2)c1OCc1ccc(Cl)cc1  Plant response rating, Sedge, Umbrella              80
1  N#Cc1cccc(Oc2ncc(Cl)cn2)c1OCC(=O)CCC(F)(F)F  Plant response rating, Sedge, Umbrella               0
2           C#Cc1cccc(Oc2ncc(Cl)cn2)c1OCCCF  Plant response rating, Sedge, Umbrella               0
3          FC(F)COc1c(Br)cccc1Oc1ncc(Cl)cn1  Plant response rating, Sedge, Umbrella              80

Consider the record given below.
**Query** Given the molecule N#CCCCOc1c(Cl)cccc1Oc1ncc(Cl)cn1 , what is its reported Plant response rating, Sedge, Umbrella?
**Result** 0

###

Test system: galium (catchweed bedstraw, Galium aparine)
Assay: Test A postemergence, galium
Type: in vivo
Details: Postemergence, 31 g ai/ha; 0 to 100 scale (0 no effect, 100 complete control)
Kindly state Plant response rating, Galium for each of the entries shown.
Numbers only.

>>> print(df.to_string())
                               smiles_str                     observable  reported_value
0  N#Cc1cccc(Oc2ncc(Cl)cn2)c1OCCCC(F)(F)F  Plant response rating, Galium              20

List the reported Plant response rating, Galium of each compound below.
1. C#Cc1cccc(Oc2ncc(Cl)cn2)c1OCCCF
2. FC(F)(F)CCOc1c(I)cccc1Oc1ncc(Cl)cn1
3. Cc1cccc(Oc2ncc(Cl)cn2)c1OCCCC#N

**Result**
[0, 60, 0]

###

Kindly state Plant response rating, Barnyardgrass for each of the entries shown.
Tested on: barnyardgrass (Echinochloa crus-galli)
Experiment: Test A postemergence, barnyardgrass
Type: in vivo
Details: 125 g ai/ha, postemergence; 0 to 100 scale, 0 is no effect, 100 is complete control; approximately 10 days

                                   compound  reported_value
0  Cc1cccc(Oc2ncc(Cl)cn2)c1OCCC(F)(F)F [Compound 64]              10
1  FC(F)=C(F)CCOc1c(Br)cccc1Oc1ncc(Cl)cn1 [Compound 38]              30
2  CC(C)CCCOc1c(Br)cccc1Oc1ncc(Cl)cn1 [Compound 11]              10
3  Fc1cccc(Oc2ncc(Cl)cn2)c1OCCC(F)(F)F [Compound 29]              20

Consider the record given below.
**Query** Given the compound N#Cc1cccc(Oc2ncc(Cl)cn2)c1OCC(F)F [Compound 16] , what is its reported Plant response rating, Barnyardgrass?
**Result** 20

###

System: barnyardgrass (Echinochloa crus-galli)
Test: Test A postemergence, barnyardgrass
Type: in vivo
Conditions: 125 g ai/ha, postemergence; 0 to 100 scale, 0 is no effect, 100 is complete control; approximately 10 days
Observable: Plant response rating, Barnyardgrass

Solved entries:
In [3]: df
Out[3]:
                                smiles_str                      measurement_target  reported_value
0         N#CCCCOc1c(Cl)cccc1Oc1ncc(Cl)cn1  barnyardgrass (Echinochloa crus-galli)              10
1        Cl/C=C/COc1c(I)cccc1Oc1ncc(Cl)cn1  barnyardgrass (Echinochloa crus-galli)             100
2  Fc1cccc(Oc2ncc(Cl)cn2)c1OC/C=C/C(F)(F)F  barnyardgrass (Echinochloa crus-galli)              40
3      N#Cc1cccc(Oc2ncc(Cl)cn2)c1OC/C=C/Cl  barnyardgrass (Echinochloa crus-galli)              90

Consider the record given below.
**Query** State its Plant response rating, Barnyardgrass on barnyardgrass (Echinochloa crus-galli): N#CCCCOc1c(C#N)cccc1Oc1ncc(F)cn1
**Result** 20

###

Test system: kochia (Kochia scoparia)
Test: Test A postemergence, kochia
Assay type: in vivo
Conditions: 125 g ai/ha, postemergence; 0 to 100 scale, 0 is no effect, 100 is complete control; approximately 10 days
Observable: Plant response rating, Kochia
Numbers only.

Solved entries:
>>> df
                                 smiles_str        measurement_target                     observable  reported_value
0  FC(F)(F)c1ccc(COc2c(Br)cccc2Oc2ncc(Cl)cn2)cc1  kochia (Kochia scoparia)  Plant response rating, Kochia              10
1           C#Cc1cccc(Oc2ncc(Cl)cn2)c1OCCCF  kochia (Kochia scoparia)  Plant response rating, Kochia               0
2      FC(F)(F)CCCOc1c(I)cccc1Oc1ncc(Cl)cn1  kochia (Kochia scoparia)  Plant response rating, Kochia              90
3            N#Cc1cccc(Oc2ncc(F)cn2)c1OCCCF  kochia (Kochia scoparia)  Plant response rating, Kochia              10
4    N#Cc1cccc(Oc2ncc(Cl)cn2)c1OCCCC(F)(F)F  kochia (Kochia scoparia)  Plant response rating, Kochia              70

List the reported Plant response rating, Kochia of each compound below.
1. N#Cc1cccc(Oc2ncc(Cl)cn2)c1OCc1ccc(Cl)cn1
2. N#CCCCOc1c(I)cccc1Oc1ncc(Cl)cn1
3. N#Cc1cccc(Oc2ncc(Cl)cn2)c1OCC(F)F
4. FC(F)(F)CCCCOc1c(Br)cccc1Oc1ncc(Cl)cn1

**Result**
[60, 100, 100, 90]

**Query** Given the compound Fc1cccc(Oc2ncc(Cl)cn2)c1OCCCC(F)(F)F , what is its reported Plant response rating, Kochia?
**Result** 80
